Tested on: DENV-1 Djibouti strain D1/H/IMTSSA/98/606
protocol: Antiviral activity against DENV-1 in Vero-B cells (viral RNA load by RT-qPCR)
Assay type: cell-based, Dengue virus
pEC50: −log10 of the molar value.
Answer class 0 if pEC50 is under 6, and class 1 if it is 6 or more.

compound: COc1cncc(NC(C(=O)c2c[nH]c3ccccc23)c2ccccc2)c1 (single isomer, unassigned) [CPD-299]
cat: class 1
//
compound: COc1cccc(NC(C(=O)c2c[nH]c3ccccc23)c2cc3ccccn3n2)c1 (single isomer, unassigned) [CPD-324]
cat: class 1
//
compound: COc1cc(NC(C(=O)c2c[nH]c3ccccc23)c2ccccc2)cc(OC)c1 (single isomer, unassigned) [CPD-326]
cat: class 1
//
compound: COc1cncc(NC(C(=O)c2c[nH]c3ccc(F)cc23)c2ccc(OC)nc2)c1 (single isomer, unassigned) [CPD-322]
cat: class 1
//
compound: COc1cncc(NC(C(=O)c2c[nH]c3ccccc23)c2ccccc2)c1 (single isomer, unassigned) [CPD-300]
cat: class 0
//
compound: COc1cncc(NC(C(=O)c2c[nH]c3ccc(F)cc23)c2ccc(OC)nc2)c1 (single isomer, unassigned) [CPD-323]
cat: class 0
